- Target entity: T1, human ACVR2A (human, UniProt P27037 20-135, limits assumed); further: test concentration or dose not given here
- T1 construct: also called activin receptor, type II A
- T1 sequence (P27037 20-135 limits assumed): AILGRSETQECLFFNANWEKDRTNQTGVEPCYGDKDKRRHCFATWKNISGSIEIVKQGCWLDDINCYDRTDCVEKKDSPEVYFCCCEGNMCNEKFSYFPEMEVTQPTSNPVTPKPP
- Assay remarks: ELISA
Endpoint name: optical density (OD)
Answers are plain numbers, in OD.

Solved cases below.
{"Binder": "366_C07 (antibody, V domains shown, VH and VL only) VH: EVQLLESGGGLVQPGGSLRLSCAASGFTFSSYSMNWVRQAPGKGLEWVSNINYNGGYTSYADSVKGRFTISRDNSKNTLYLQMNSLRAEDTAVYYCARSATWHDTHLDYWGQGTLVTVSS VL: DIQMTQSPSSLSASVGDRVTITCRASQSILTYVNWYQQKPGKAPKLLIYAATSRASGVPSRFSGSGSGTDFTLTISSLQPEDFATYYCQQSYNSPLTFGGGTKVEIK", "Reading unit": "OD", "optical density": 3.02}
{"Binder": "376_G11 (antibody, V domains shown, VH and VL only) VH: EVQLLESGGGLVQPGGSLRLSCAASGFTFSSYSMNWVRQAPGKGLEWVSGINYNSGYKSYADSVKGRFTISRDNSKNTLYLQMNSLRAEDTAVYYCARSATWHDTHLDYWGQGTLVTVSS VL: DIQMTQSPSSLSASVGDRVTITCRASQSIVTYVNWYQQKPGKAPKLVIYAATSLASGVPSRFSGSGSGTDFTLTISSLQPEDFATYYCQQSYNLPLTFGGGTKVEIK", "Reading unit": "OD", "optical density": 3.65}

State recorded optical density for all listed binders.
1. 374_G12 (antibody, V domains shown, VH and VL only) VH: EVQLLESGGGLVQPGGSLRLSCAASGFTFDDYGMNWVRQAPGKGLEWVSSINYNGGYKSYADSVKGRFTISRDNSKNTLYLQMNSLRAEDTAVYYCARSATWHDTHLDYWGQGTLVTVSS VL: DIQMTQSPSSLSASVGDRVTITCRASQSILTYVNWYQQKPGKAPKLVIYAATSLASGVPSRFSGSGSGTDFTLTISSLQPEDFATYYCQQSYNSPLTFGGGTKVEIK
2. 371_F12 (antibody, V domains shown, VH and VL only) VH: EVQLLESGGGLVQPGGSLRLSCAASGFTFDSYSMNWVRQAPGKGLEWVSNINYNGGYKSYADSVKGRFTISRDNSKNTLYLQMNSLRAEDTAVYYCARSATWHDTHLDYWGQGTLVTVSS VL: DIQMTQSPSSLSASVGDRVTITCRASQSIISYLNWYQQKPGKAPKLLIYAATSRASGVPSRFSGSGSGTDFTLTISSLQPEDFATYYCQQSNNLPLTFGGGTKVEIK
3. 376_H08 (antibody, V domains shown, VH and VL only) VH: EVQLLESGGGLVQPGGSLRLSCAASGFTFDSYGMNWVRQAPGKGLEWVSNINYNGGYKGYADSVKGRFTISRDNSKNTLYLQMNSLRAEDTAVYYCARSATWHDTHLDYWGQGTLVTVSS VL: DIQMTQSPSSLSASVGDRVTITCRASQSILTYLNWYQQKPGKAPKLLIYAATSRHSGVPSRFSGSGSGTDFTLTISSLQPEDFATYYCQQSDSLPLTFGGGTKVEIK

3.19
2.47
3.31
